Every entry's value here was drawn from PubChem BioAssay AID1159580.

# normalized growth values compiled below
assay_text: chemical genetic growth profiling, strain panel (AID 1159580);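 also: tested at 20 µM; growth read once vehicle control cultures reached saturation at 30 °C; 1 = growth at the plate median or of vehicle wells; lower values mean less growth of the strain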
condition_parameters: S. cerevisiae deletion strains, growth OD, locus YHR027C, strain rpn1, hits give low values
The campaign covered roughly 5,500 compounds. About 2,000 (36%) were called active. Roughly 18% stayed inconclusive and do not appear here. The list shows a part of the results.
Give a plain numeric answer without units written out.

Solved entries:
mol: O=C(O)C1=CCCNC1
normalized growth: 0.993
//
mol: COc1ccc([C@@H]2CC(=O)c3c(O)cc(O[C@@H]4O[C@H](CO[C@H]5O[C@@H](C)[C@H](O)[C@@H](O)[C@H]5O)[C@@H](O)[C@H](O)[C@H]4O)cc3O2)cc1O
normalized growth: 0.99
//
mol: Nc1ccc(C(=O)O)cc1
normalized growth: 1.02
//
mol: C[n+]1ccccc1/C=N/O
normalized growth: 1
//
mol: CN(C)[C@@H]1C(=O)C(C(N)=O)=C(O)[C@@]2(O)C(=O)C3=C(O)c4c(O)ccc(Cl)c4[C@@](C)(O)[C@H]3C[C@@H]12
normalized growth: 0.981

// moving on: another record for normalized growth
Qu. Which normalized growth is reported for this compound? `CCN(CC)CCOCCOC(=O)C1(c2ccccc2)CCCC1`
Ans. 0.996

---

Recorded measurements of normalized growth, one per entry
assay_text: chemical genetic growth profiling, strain panel (AID 1159580)
condition_parameters: S. cerevisiae deletion strains, growth OD, locus YML032C, strain rad52, hits give low values
Screen size: about 5,500 compounds; about 2,000 (36%) were called active. Inconclusive results (about 18%) are left out. Some of the results follow.

# count of solved cases: 5
compound: CCC(C)C(=O)OC1[C@@H]2CC3=C4CC(=O)O[C@@H](c5ccoc5)[C@]4(C)CCC3[C@@](C)(C2=O)[C@@H](CC(=O)OC)C1(C)C (stereo partly drawn)
normalized growth: 1.01 (inactive)
--
compound: C=C1C[C@]23C[C@@]1(O)CC[C@H]2[C@@]12C=C[C@H](O)[C@@](C)(C(=O)O1)[C@H]2[C@@H]3C(=O)O
normalized growth: 0.984 (inactive)
--
compound: CNCCCC12CCC(c3ccccc31)c1ccccc12
normalized growth: 0.963 (inactive)
--
compound: CC(C)=CCCC(C)C1CC[C@@]2(C)C3=C(CC[C@]12C)C1(C)CC[C@H](O)C(C)(C)C1CC3 (stereo partly drawn)
normalized growth: 0.956 (inactive)
--
compound: CC(=O)O[C@H]1CCC2(C)C3=C(CCC2C1(C)C)[C@@]1(C)CC[C@@H](C(C)CCC=C(C)C)[C@]1(C)CC3 (stereo partly drawn)
normalized growth: 0.994 (inactive)

Qu. Need normalized growth, item `CC(=O)N[C@@H](Cc1c[nH]c2ccccc12)C(N)=O`
Ans. 1 (inactive)

Qu. Follow-up entry: CCC(C)[C@H]1O[C@]2(C=C[C@@H]1C)C[C@@H]1C[C@@H](C/C=C(\C)[C@@H](OC3C[C@H](OC)C(O[C@H]4C[C@H](OC)[C@@H](O)[C@H](C)O4)[C@H](C)O3)[C@@H](C)/C=C/C=C3\CO[C@@H]4[C@H](O)C(C)=C[C@@H](C(=O)O1)[C@]34O)O2 (stereo partly drawn)
Ans. 0.915 (inactive)

Qu. Here is the next compound: CC(C)CCCC(C)C1CC[C@@]2(C)C3=C(CC[C@]12C)[C@@]1(C)CC[C@H](O)C(C)(C)C1CC3 (stereo partly drawn)
Ans. 0.966 (inactive)

Qu. Repeat for the following compound: `C=C1c2c(Cl)ccc(O)c2C(O)=C2C(=O)[C@]3(O)C(O)=C(C(N)=O)C(=O)[C@@H](N(C)C)[C@@H]3[C@@H](O)[C@H]12`
Ans. 0.937 (inactive)

Qu. How about this compound: `C=C1c2cccc(O)c2C(O)=C2C(=O)[C@]3(O)C(O)=C(C(N)=O)C(=O)[C@@H](N(C)C)[C@@H]3[C@@H](O)[C@H]12`
Ans. 0.959 (inactive)

Qu. Now consider `CS(=O)(=O)Nc1ccc([N+](=O)[O-])cc1Oc1ccccc1` and answer again.
Ans. 0.958 (inactive)

Qu. Please do the same for `O=C(O)c1cc(O)c2c(c1)[C@@H]([C@H]1c3cc(C(=O)O)cc(O)c3C(=O)c3c(O[C@H]4O[C@H](CO)[C@@H](O)[C@H](O)[C@H]4O)cccc31)c1cccc(O[C@H]3O[C@H](CO)[C@@H](O)[C@H](O)[C@H]3O)c1C2=O` as well.
Ans. 0.998 (inactive)

Qu. Next compound: `CN(C)c1ccc(O)c2c1C[C@H]1C[C@H]3[C@H](N(C)C)C(=O)C(C(N)=O)=C(O)[C@@]3(O)C(=O)C1=C2O`
Ans. 1 (inactive)

---

assay_text: chemical genetic growth profiling, strain panel (AID 1159580)
condition_parameters: S. cerevisiae deletion strains, growth OD, locus YJL187C, strain SWE1, hits give low values
About 2,000 (36%) of roughly 5,500 compounds were called active. Roughly 18% stayed inconclusive and do not appear here. Some of the results follow.
Decide using normalized growth alone. Strictly below 1: satisfied. Equal to or above 1: not satisfied.

molecule: CC1(C)CC2C1CC[C@]1(C)CCC3C(C(=O)O)CC(=O)O[C@@]32C1 (stereo not given in full)
class_assignment: not satisfied

Qu. Answer whether the molecule CC(C)c1ccc2c(c1)CCC1C(C)(C(N)=O)CCCC21C (stereo not given) has normalized growth strictly less than 1
Ans. satisfied

Qu. Moving on to the next molecule: `CC(=O)c1ccc(O)c(CC=C(C)C)c1`
Ans. satisfied

Qu. Entry to check: `NC(=S)CSc1ccccc1`
Ans. satisfied

---

Parameter: normalized growth. Scope: all listed entries.
assay_text: chemical genetic growth profiling, strain panel (AID 1159580);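 also: tested at 20 µM; growth read once vehicle control cultures reached saturation at 30 °C; 1 = growth at the plate median or of vehicle wells; lower values mean less growth of the strain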
condition_parameters: S. cerevisiae deletion strains, growth OD, locus YNR030W, strain Alg12, hits give low values
Among all 5,500 compounds or so, about 2,000 (36%) were called active. Roughly 18% stayed inconclusive and do not appear here. The list shows a part of the results.
I only need the number, thanks.

molecule: Clc1ccc(Sc2ncnc3ccsc23)cc1
normalized growth: 0.705
//
molecule: c1ccc(-c2csc(-c3ccncc3)n2)cc1
normalized growth: 0.901
//
molecule: CC(C)(C)c1cc(C(=O)NNC(=O)c2cc(C(F)(F)F)cc(C(F)(F)F)c2)n(Cc2ccc(F)cc2)n1
normalized growth: 0.997
//
molecule: C=Cc1c(SC)sc(C(=O)O)c1C
normalized growth: 0.979
//
molecule: OC(c1ccccc1)(c1ccccc1)c1ccncc1
normalized growth: 1.03
//
molecule: Cc1cc(=O)n(-c2ccc([N+](=O)[O-])cc2)[nH]1
normalized growth: 0.811
//
molecule: Cn1ncc(C(=O)O/N=C(/N)c2cc(C(F)(F)F)cc(C(F)(F)F)c2)c1-n1cccc1
normalized growth: 1.02
//
molecule: FC(F)(F)c1cc(-c2noc(C3CCc4ccccc4O3)n2)cc(C(F)(F)F)c1 (stereo unspecified)
normalized growth: 0.996
//
molecule: COC(OC)c1cc(=O)[nH]c(=S)[nH]1
normalized growth: 1.02
//
molecule: Nc1ccc2nonc2c1N
normalized growth: 0.845

Let us examine a further case.
Qu. Fill blank: measured normalized growth of the molecule `COCc1cc(=O)n2[nH]c(C(C)(C)C)cc2n1` is ____.
Ans. 1.01

---

assay_text: chemical genetic growth profiling, strain panel (AID 1159580);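 also: tested at 20 µM; growth read once vehicle control cultures reached saturation at 30 °C; 1 = growth at the plate median or of vehicle wells; lower values mean less growth of the strain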
condition_parameters: S. cerevisiae deletion strains, growth OD, locus YEL003W, strain gim4, hits give low values
About 2,000 (36%) of roughly 5,500 compounds were called active. Another 18% or so got no clear call; they are omitted. The list shows a part of the results.
Measured normalized growth accompanies every entry in the list below.
# answer = number (no unit)

Look over these answered cases.
compound: CC(=O)c1ccc(O)c(CC=C(C)C)c1
normalized growth: 0.928
//
compound: CCCN(CCC)S(=O)(=O)c1ccc(C(=O)O)cc1
normalized growth: 0.99
//
compound: C=C1c2cccc(O)c2C(O)=C2C(=O)[C@]3(O)C(O)=C(C(N)=O)C(=O)[C@@H](N(C)C)[C@@H]3[C@@H](O)[C@H]12
normalized growth: 1
//
compound: CC(CCC(=O)O)[C@H]1CCC2C3C(=O)C[C@@H]4CC(=O)CC[C@]4(C)C3CC(=O)[C@@]21C (stereo partly specified)
normalized growth: 1.01

In the following, a different compound is considered.
Qu. State the recorded normalized growth for this entry: `COc1cc(C(C)=O)cc(OC)c1O`
Ans. 1.04

---

assay_text: chemical genetic growth profiling, strain panel (AID 1159580);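 also: tested at 20 µM; growth read once vehicle control cultures reached saturation at 30 °C; 1 = growth at the plate median or of vehicle wells; lower values mean less growth of the strain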
condition_parameters: S. cerevisiae deletion strains, growth OD, locus YNL298W, strain CLA4 (second series), hits give low values
In all, about 5,500 compounds went through this assay and about 2,000 (36%) were called active. Roughly 18% stayed inconclusive and do not appear here. The list shows a part of the results.
Each entry below carries its recorded normalized growth.
Give the figure by itself; no unit, no explanation.

Guide cases for normalized growth, answers given:
mol: O=c1[nH]cnc2ccsc12
normalized growth: 1.01

mol: Cc1cccc(Cn2nc(C(C)(C)C)cc2C(=O)O)c1
normalized growth: 0.997

mol: c1ccc(CN2CCC(n3nnc4cccnc43)CC2)cc1
normalized growth: 0.965

mol: COC(=O)c1ccc(S(=O)(=O)N2CCC(C(N)=O)CC2)n1C
normalized growth: 1.06

mol: N/C(=N/OC(=O)c1ccccc1)c1ccc(-c2csnn2)cc1
normalized growth: 1.01

Qu. Tell me the measured normalized growth of `OCc1ccccc1-c1ccccc1` , please.
Ans. 1

Qu. Also need `COC(OC)c1cc(=O)[nH]c(=S)[nH]1` , thanks.
Ans. 1.08
